Origin of the recorded values: patent EP4725957A1

Measured MIC by item
# Tested on: Pseudomonas aeruginosa PAE19-3
# Assay type: cell-based
# measurement.setup: PAE19-3
# Protocol: The minimal inhibitory concentration (MIC) was determined by the broth microdilution method according to the recommended procedures of the Clinical and Laboratory Standards Institute (CLSI). An appropriate amount of the cyclic lipopeptide compounds prepared in Examples 1-120 and the reference standards were weighed and dissolved in sterile pure water. […]
Bridge positions count the residues as written; N and C are the ends. Square brackets hold non-standard residues; d marks the D form. Peptide text beside a SMILES is read from it. * marks the point of attachment. Dab(CH2SO3H) = N[C@@H](CCNCS(=O)(=O)O)C(=O)O; Heptanoyl(6-Me) = CC(C)CCCCC(=O)*; Nonanoyl = CCCCCCCCC(=O)*; Octanoyl = CCCCCCCC(=O)*; Orn = NCCC[C@H](N)C(=O)O; dDap = NC[C@@H](N)C(=O)O; Dab = NCC[C@H](N)C(=O)O; Dap = NC[C@H](N)C(=O)O
Numbers only here, please. The scale is µg/mL.

Look up and report measured MIC for this entry: CCCCCCCCC(=O)N[C@@H](CCN)C(=O)N[C@H](C(=O)N[C@@H](CN)C(=O)N[C@H]1CCNC(=O)[C@H]([C@@H](C)O)NC(=O)[C@H](CCN)NC(=O)[C@H](CCN)NC(=O)[C@H](CC(C)C)NC(=O)[C@@H](Cc2ccccc2)NC(=O)[C@H](CCN)NC1=O)[C@@H](C)O [Compound 40] (Nonanoyl-[Dab]T[Dap][Dab][Dab][dF]L[Dab][Dab]T; lactam 4-C)
0.5

Please list MIC recorded for the compound CCCCCCCC(=O)N[C@@H](CCN)C(=O)N[C@H](C(=O)N[C@H](CO)C(=O)N[C@H]1CCNC(=O)[C@H]([C@@H](C)O)NC(=O)[C@H](CCN)NC(=O)[C@H](CCCN)NC(=O)[C@H]([C@@H](C)O)NC(=O)[C@@H](Cc2ccccc2)NC(=O)[C@H](CCN)NC1=O)[C@@H](C)O [Compound 78] (Octanoyl-[Dab]T[dS][Dab][Dab][dF]T[Orn][Dab]T; lactam 4-C)
64

Check the records and state MIC for CC(C)CCCCC(=O)N[C@@H](CCN)C(=O)N[C@H](C(=O)N[C@H](CN)C(=O)N[C@H]1CCNC(=O)[C@H]([C@@H](C)O)NC(=O)[C@H](CCN)NC(=O)[C@H](CCN)NC(=O)[C@H](CC(C)C)NC(=O)[C@@H](Cc2ccccc2)NC(=O)[C@H](CCN)NC1=O)[C@@H](C)O [Compound 32] ({Heptanoyl(6-Me)}-[Dab]T[dDap][Dab][Dab][dF]L[Dab][Dab]T; lactam 4-C)
0.25

Return MIC (reported value) for this compound: CCCCCCCCC(=O)N[C@@H](CCN)C(=O)N[C@H](C(=O)N[C@@H](CCCN)C(=O)N[C@H]1CCNC(=O)[C@H]([C@@H](C)O)NC(=O)[C@H](CCN)NC(=O)[C@H](CCN)NC(=O)[C@H]([C@@H](C)O)NC(=O)[C@@H](Cc2ccccc2)NC(=O)[C@H](CCN)NC1=O)[C@@H](C)O [Compound 30] (Nonanoyl-[Dab]T[Orn][Dab][Dab][dF]T[Dab][Dab]T; lactam 4-C)
0.5

More entries:
# return recorded MIC for input CC(C)CCCCC(=O)N[C@@H](CCN)C(=O)N[C@H](C(=O)N[C@@H](CN)C(=O)N[C@H]1CCNC(=O)[C@H]([C@@H](C)O)NC(=O)[C@H](CCN)NC(=O)[C@H](CCNCS(=O)(=O)O)NC(=O)[C@H]([C@@H](C)O)NC(=O)[C@@H](Cc2ccccc2)NC(=O)[C@H](CCN)NC1=O)[C@@H](C)O [Compound 119] ({Heptanoyl(6-Me)}-[Dab]T[Dap][Dab][Dab][dF]T[Dab(CH2SO3H)][Dab]T; lactam 4-C)
0.5

====

# Tested on: Klebsiella pneumoniae KPN+19-15
# Type: cell-based
# measurement.setup: KPN+19-15
Numbered stars: 1 amine (or outer) side, 2 acyl side, 3 side chain; on linkers, the order of the positions; unused ones are H or OH. Bridge positions count the residues as written; N and C are the ends. Square brackets hold non-standard residues; d marks the D form. Peptide text beside a SMILES is read from it. * marks the point of attachment. Dab(CH2SO3H) = N[C@@H](CCNCS(=O)(=O)O)C(=O)O; X2 = O=C([C@H](CNCS(=O)(=O)O)N[*:1])[*:2]; Heptanoyl(6-Me) = CC(C)CCCCC(=O)*; dDab = NCC[C@@H](N)C(=O)O; Heptanoyl = CCCCCCC(=O)*; Dab = NCC[C@H](N)C(=O)O; Dap = NC[C@H](N)C(=O)O
recorded.endpoint: MIC (µg/mL)
Number only, in µg/mL; omit the unit.

Some compounds with known MIC results, for comparison:
Name the recorded MIC of the item CC(C)CCCCC(=O)N[C@@H](CCNCS(=O)(=O)O)C(=O)N[C@H](C(=O)N[C@H](CO)C(=O)N[C@H]1CCNC(=O)[C@H]([C@@H](C)O)NC(=O)[C@H](CCN)NC(=O)[C@H](CCN)NC(=O)[C@H]([C@@H](C)O)NC(=O)[C@@H](Cc2ccccc2)NC(=O)[C@H](CCN)NC1=O)[C@@H](C)O [Compound 108] ({Heptanoyl(6-Me)}-[Dab(CH2SO3H)]T[dS][Dab][Dab][dF]T[Dab][Dab]T; lactam 4-C) in your answer.
0.125

Indicate the recorded MIC value for this compound: CCCCCCC(=O)N[C@@H](CN)C(=O)N[C@H](C(=O)N[C@H](CCN)C(=O)N[C@H]1CCNC(=O)[C@H]([C@@H](C)O)NC(=O)[C@H](CCN)NC(=O)[C@H](CCN)NC(=O)[C@H](CC(C)C)NC(=O)[C@@H](CC(C)C)NC(=O)[C@H](CCN)NC1=O)[C@@H](C)O [Compound 99] (Heptanoyl-[Dap]T[dDab][Dab][Dab][dL]L[Dab][Dab]T; lactam 4-C)
0.03

Next:
Hello, please tell me recorded MIC for this one: CC(C)CCCCC(=O)N[C@@H](CCN)C(=O)N[C@H](C(=O)N[C@@H](CNCS(=O)(=O)O)C(=O)N[C@H]1CCNC(=O)[C@H]([C@@H](C)O)NC(=O)[C@H](CCN)NC(=O)[C@H](CCN)NC(=O)[C@H]([C@@H](C)O)NC(=O)[C@@H](Cc2ccccc2)NC(=O)[C@H](CCN)NC1=O)[C@@H](C)O [Compound 112] ({Heptanoyl(6-Me)}-[Dab]T[X2][Dab][Dab][dF]T[Dab][Dab]T; lactam 4-C)
0.125

Give the measured MIC for CC(C)CCCCC(=O)N[C@@H](CN)C(=O)N[C@H](C(=O)N[C@H](CCN)C(=O)N[C@H]1CCNC(=O)[C@H]([C@@H](C)O)NC(=O)[C@H](CCN)NC(=O)[C@H](CCN)NC(=O)[C@H](CC(C)C)NC(=O)[C@@H](CC(C)C)NC(=O)[C@H](CCN)NC1=O)[C@@H](C)O [Compound 97] ({Heptanoyl(6-Me)}-[Dap]T[dDab][Dab][Dab][dL]L[Dab][Dab]T; lactam 4-C)
0.03

Assign MIC to the following record: CC(C)CCCCC(=O)N[C@@H](CCN)C(=O)N[C@H](C(=O)N[C@@H](CN)C(=O)N[C@H]1CCNC(=O)[C@H]([C@@H](C)O)NC(=O)[C@H](CCN)NC(=O)[C@H](CCN)NC(=O)[C@H](CC(C)C)NC(=O)[C@@H](Cc2ccccc2)NC(=O)[C@H](CCN)NC1=O)[C@@H](C)O [Compound 37] ({Heptanoyl(6-Me)}-[Dab]T[Dap][Dab][Dab][dF]L[Dab][Dab]T; lactam 4-C)
0.03

====

Each entry below carries its recorded MIC.
# Test system: Escherichia coli ATCC BAA-2523
# Assay type: cell-based
# measurement.setup: ATCC BAA-2523
Bridge positions count the residues as written; N and C are the ends. Square brackets hold non-standard residues; d marks the D form. Peptide text beside a SMILES is read from it. * marks the point of attachment. Heptanoyl(6-Me) = CC(C)CCCCC(=O)*; Nonanoyl = CCCCCCCCC(=O)*; Orn = NCCC[C@H](N)C(=O)O; Dab = NCC[C@H](N)C(=O)O
Value expressed in µg/mL; do not type the unit.

Check Escherichia coli ATCC BAA-2523 data and give MIC for CC(C)CCCCC(=O)N[C@@H](CCCN)C(=O)N[C@H](C(=O)N[C@H](CO)C(=O)N[C@H]1CCNC(=O)[C@H]([C@@H](C)O)NC(=O)[C@H](CCN)NC(=O)[C@H](CCN)NC(=O)[C@H]([C@@H](C)O)NC(=O)[C@@H](Cc2ccccc2)NC(=O)[C@H](CCN)NC1=O)[C@@H](C)O [Compound 57] ({Heptanoyl(6-Me)}-[Orn]T[dS][Dab][Dab][dF]T[Dab][Dab]T; lactam 4-C) .
0.125

# ---- query compound ----
Give measured MIC for CCCCCCCCC(=O)N[C@@H](CCCN)C(=O)N[C@H](C(=O)N[C@H](CO)C(=O)N[C@H]1CCNC(=O)[C@H]([C@@H](C)O)NC(=O)[C@H](CCN)NC(=O)[C@H](CCN)NC(=O)[C@H]([C@@H](C)O)NC(=O)[C@@H](Cc2ccccc2)NC(=O)[C@H](CCN)NC1=O)[C@@H](C)O [Compound 60] (Nonanoyl-[Orn]T[dS][Dab][Dab][dF]T[Dab][Dab]T; lactam 4-C) (Escherichia coli ATCC BAA-2523).
0.25
